B1: CPEB3 Ribozyme (parent)
chain: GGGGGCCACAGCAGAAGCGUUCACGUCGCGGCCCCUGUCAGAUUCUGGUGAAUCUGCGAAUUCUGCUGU

- Variants of: B1
- Assay remarks: self-cleavage, relative activity (ratio to wild type); higher = more cleavage; co-transcriptional
Assay endpoint: self-cleavage
Lab note: record just the number, no unit beside it.

Example variants with recorded self-cleavage:
1. C6A A13G = 0.506
2. G4U U46G = 0.803
3. A16G C18U = 0.569

# next variant below
// self-cleavage lookup, key: A13G U55C
0.621
